molecular target: canine TRPM8 (Canis lupus familiaris, UniProt Q1A7N1); construct: expressed in transfected cells; experiment: In Vitro Canine TRPM8 Functional Assay (icilin-induced intracellular Ca2+ fluorescence, FLIPR/FDSS); assay type: cell-based; conditions: 0.2 μM test compound; icilin challenge; HEK293 cells stably expressing canine TRPM8
Sequence (Q1A7N1 1-1104): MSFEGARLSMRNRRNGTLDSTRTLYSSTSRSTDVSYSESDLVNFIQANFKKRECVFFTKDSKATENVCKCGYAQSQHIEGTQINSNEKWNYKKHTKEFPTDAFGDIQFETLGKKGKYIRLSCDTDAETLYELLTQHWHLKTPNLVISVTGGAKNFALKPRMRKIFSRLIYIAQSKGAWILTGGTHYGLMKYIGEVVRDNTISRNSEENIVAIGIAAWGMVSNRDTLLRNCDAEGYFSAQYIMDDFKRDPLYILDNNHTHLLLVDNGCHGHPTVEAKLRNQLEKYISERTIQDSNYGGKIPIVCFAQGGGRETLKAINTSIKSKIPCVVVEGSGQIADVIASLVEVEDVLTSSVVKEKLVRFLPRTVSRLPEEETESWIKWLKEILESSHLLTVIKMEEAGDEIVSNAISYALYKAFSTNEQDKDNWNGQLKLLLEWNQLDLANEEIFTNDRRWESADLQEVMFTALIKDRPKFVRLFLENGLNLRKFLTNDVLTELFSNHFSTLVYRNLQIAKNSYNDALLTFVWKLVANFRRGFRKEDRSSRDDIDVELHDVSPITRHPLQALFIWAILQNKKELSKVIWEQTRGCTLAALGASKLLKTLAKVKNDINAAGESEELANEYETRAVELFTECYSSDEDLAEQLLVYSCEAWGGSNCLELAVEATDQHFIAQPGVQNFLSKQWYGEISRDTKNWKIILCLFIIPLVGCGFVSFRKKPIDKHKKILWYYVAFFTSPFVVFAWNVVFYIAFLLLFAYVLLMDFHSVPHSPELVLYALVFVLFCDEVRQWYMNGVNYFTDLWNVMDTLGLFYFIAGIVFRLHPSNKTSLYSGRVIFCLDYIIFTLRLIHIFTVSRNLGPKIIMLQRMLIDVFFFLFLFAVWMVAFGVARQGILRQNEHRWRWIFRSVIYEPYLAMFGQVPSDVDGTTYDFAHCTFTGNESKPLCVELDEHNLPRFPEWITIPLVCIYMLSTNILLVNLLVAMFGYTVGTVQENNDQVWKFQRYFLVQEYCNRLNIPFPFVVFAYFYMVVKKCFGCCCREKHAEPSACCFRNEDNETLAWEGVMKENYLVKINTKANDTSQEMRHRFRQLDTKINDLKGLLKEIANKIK
Where a name gives a salt, the structure may show the parent alone.
measure: inhibition at 0.2 µM (%)
Report only the number, with the unit % understood.

compound: Fc1ccccc1-c1ccc2[nH]c(C=CC3CCCC3)nc2c1
assay target: canine TRPM8 (Canis lupus familiaris, UniProt Q1A7N1)
experimental result: 85
//
compound: N#Cc1ccccc1-c1ccc2[nH]c(C=CC3CCCC3)nc2c1
assay target: canine TRPM8 (Canis lupus familiaris, UniProt Q1A7N1)
experimental result: 100
//
compound: COc1cccc(OC)c1-c1ccc2[nH]c(C=CC3CC=C(F)CC3)nc2c1 (stereo not shown) [Compound 40, hydrochloride salt]
assay target: canine TRPM8 (Canis lupus familiaris, UniProt Q1A7N1)
experimental result: 101
//
compound: FC(F)(F)c1ncccc1-c1ccc2[nH]c(/C=C/C3CCCCC3)nc2c1 [Compound 56, hydrochloride]
assay target: canine TRPM8 (Canis lupus familiaris, UniProt Q1A7N1)
experimental result: 99
//
compound: Cc1cc(-c2ccccc2OC(F)(F)F)cc2nc(C=CC3CCCCC3)[nH]c12 [Compound 48, hydrochloride salt]
assay target: canine TRPM8 (Canis lupus familiaris, UniProt Q1A7N1)
experimental result: 99

query: Lab request: please report inhibition at 0.2 µM under test system canine TRPM8 (Canis lupus familiaris, UniProt Q1A7N1) for Fc1ccccc1-c1ccc2[nH]c(C=CC3CCC(F)(F)CC3)nc2c1 [Compound 39, hydrochloride salt]
result: 101

query: Lab request: please report inhibition at 0.2 µM under test system canine TRPM8 (Canis lupus familiaris, UniProt Q1A7N1) for COc1cccc(F)c1-c1ccc2[nH]c(C=CC3CCC(F)(F)CC3)nc2c1 [Compound 44, hydrochloride salt]
result: 101

query: Lab request: please report inhibition at 0.2 µM under test system canine TRPM8 (Canis lupus familiaris, UniProt Q1A7N1) for FC1=CCC(C=Cc2nc3cc(-c4ccccc4C(F)(F)F)ccc3[nH]2)CC1 (stereo not shown)
result: 102

query: Lab request: please report inhibition at 0.2 µM under test system canine TRPM8 (Canis lupus familiaris, UniProt Q1A7N1) for OCc1ccccc1-c1ccc2[nH]c(/C=C/C3CCCCC3)nc2c1
result: 103

query: Lab request: please report inhibition at 0.2 µM under test system canine TRPM8 (Canis lupus familiaris, UniProt Q1A7N1) for Clc1ccc(Cl)c(-c2ccc3[nH]c(C=CC4CCCCC4)nc3c2)c1
result: 86

* * *

biological target: canine TRPM8 (Canis lupus familiaris); assay: In Vitro Canine TRPM8 Functional Assay (icilin-induced intracellular Ca2+ fluorescence, FLIPR/FDSS); conditions: icilin challenge (~80% maximal response); HEK293 cells stably expressing canine TRPM8; eight-point dose-response
pIC50: −log10 of the molar value. Where a name gives a salt, the structure may show the parent alone.
Please mark true (1) if the recorded pIC50 is equal to or greater than 8, and false (0) if it falls below.

molecule: Cc1cccc(C)c1-c1ccc2[nH]c(C=CC3CC=C(F)CC3)nc2c1 (centres unmarked) [Compound 35, hydrochloride salt]
answer label: true (1)
//
molecule: CC1(C)CCC(/C=C/c2nc3cc(-c4c(F)cccc4F)ccc3[nH]2)CC1 [Compound 65, trifluoroacetic acid salt]
answer label: false (0)
//
molecule: C(=CC1CCCCC1)c1nc2cc(-c3ccccc3)ccc2[nH]1
answer label: false (0)
//
molecule: Fc1ccc(F)c(-c2ccc3[nH]c(C=CC4CCCCC4)nc3c2)c1
answer label: false (0)

query: Exam item: decide whether the reported pIC50 for OCc1ccccc1-c1ccc2[nH]c(C=CC3CCCC3)nc2c1 is at least 8.
result: false (0)

query: Exam item: decide whether the reported pIC50 for CC1(c2ccccc2-c2ccc3[nH]c(C=CC4CCCCC4)nc3c2)OCCO1 is at least 8.
result: false (0)

query: Exam item: decide whether the reported pIC50 for FC(F)(F)c1cccnc1-c1ccc2[nH]c(/C=C/C3CCCCC3)nc2c1 is at least 8.
result: false (0)

query: Exam item: decide whether the reported pIC50 for Cc1cc(-c2ccccc2C(F)(F)F)cc2nc(C=CC3CCCCC3)[nH]c12 [Compound 49, hydrochloride salt] is at least 8.
result: true (1)

query: Exam item: decide whether the reported pIC50 for N#Cc1ccccc1-c1ccc2[nH]c(C=CC3CCCC3)nc2c1 is at least 8.
result: false (0)

query: Exam item: decide whether the reported pIC50 for Fc1ccccc1-c1ccc2[nH]c(C=CC3CCCC3)nc2c1 is at least 8.
result: false (0)

query: Exam item: decide whether the reported pIC50 for FC(F)(F)COc1ccccc1-c1ccc2[nH]c(C=CC3CCCCC3)nc2c1 is at least 8.
result: true (1)
